Hey, just so you know, these numbers are from ChEMBL document CHEMBL1201862.

- Subject Of Test: Calpain-2 catalytic subunit (Sus scrofa, UniProt P43367)
- Sequence (P43367 whole entry): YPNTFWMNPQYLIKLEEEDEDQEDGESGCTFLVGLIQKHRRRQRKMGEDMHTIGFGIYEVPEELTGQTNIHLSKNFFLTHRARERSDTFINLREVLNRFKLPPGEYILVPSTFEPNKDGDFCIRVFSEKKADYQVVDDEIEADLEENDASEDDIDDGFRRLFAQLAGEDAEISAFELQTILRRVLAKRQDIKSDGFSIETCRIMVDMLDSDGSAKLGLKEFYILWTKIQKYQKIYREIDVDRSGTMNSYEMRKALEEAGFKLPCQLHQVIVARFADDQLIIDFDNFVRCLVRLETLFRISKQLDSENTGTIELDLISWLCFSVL
- Assay Remarks: pig calpain II inhibitor potency, dose response, biochemical, fluorogenic peptide substrate (AID 1420)
- Assay type: functional

| Molecule | IC50 |
| --- | --- |
| CCn1c(/C=C/Nc2ccccc2)[n+](CC)c2ccc(C(=O)OCC(F)(F)F)cc21 | 6.92 µM (not active) |
| COc1ccc(NC(=O)c2ccccc2SC)cc1 | 8.1 µM (not active) |
| Cc1ccc(-c2noc(CN(C(=O)CCCCCN3C(=O)c4ccccc4C3=O)C(C)C)n2)cc1 | 5.93 µM (not active) |
| CCOc1ccccc1N(CC(=O)OC)S(=O)(=O)c1ccccc1 | 35 µM (not active) |
| COc1ccc(CCNc2oc(COc3ccc(F)cc3)nc2C#N)cc1 | 9.9 µM (not active) |
| O=C(CCSc1ccccc1)NC(=O)COC(=O)C1CCCCC1 | 6.64 µM (not active) |
| CCOC(=O)C1CCCN(S(=O)(=O)c2cccs2)C1 (stereo not given) | < 0.4 µM (not active) |
| CCOC(=O)C1CCCN(c2ccc([N+](=O)[O-])c3nonc23)C1 (stereo not given) | 19 µM (not active) |
| O=C(COc1ccc(C(=O)c2ccccc2)cc1)NC1CCCCCC1 | 22.9 µM (not active) |
| Cc1cccc(C)c1N(CC(=O)Nc1cc(Cl)ccc1Oc1ccccc1)S(C)(=O)=O | 2.8 µM (not active) |

----------
AC50, Cytochrome P450 2C9 (Homo sapiens, UniProt P11712), per-entry values.
Readout Label: AC50

| Compound | Subject Of Test | Assay Value |
| --- | --- | --- |
| Cc1nnc(SCC(=O)Nc2nccs2)nc1O | Cytochrome P450 2C9 (Homo sapiens, UniProt P11712) | 10 µM (inconclusive) |
| Cc1cc(C)n(-c2nc(SCCN(C)C)c3c4c(sc3n2)CCCC4)n1 | Cytochrome P450 2C9 (Homo sapiens, UniProt P11712) | 15.8 µM (inconclusive) |
| COc1ccc(C(C(=O)NC2CCCC2)N(C(=O)c2snc(-c3ccc(F)cc3)c2N)c2ccc(F)cc2)cc1 (stereo unspecified) | Cytochrome P450 2C9 (Homo sapiens, UniProt P11712) | 1.78 µM (inconclusive) |
| Cc1nc(NCc2ccco2)c2c3c(sc2n1)CCC3 | Cytochrome P450 2C9 (Homo sapiens, UniProt P11712) | 12.6 µM (inconclusive) |
| O=C1NCN(c2ccccc2)C12CCN(C[C@H]1COc3ccccc3O1)CC2 | Cytochrome P450 2C9 (Homo sapiens, UniProt P11712) | 15.8 µM (inconclusive) |
| CC1CC/C(=C\c2ccc3c(c2)OCO3)C(=O)/C1=C/c1ccc2c(c1)OCO2 (stereo unspecified) | Cytochrome P450 2C9 (Homo sapiens, UniProt P11712) | 6.31 µM (inconclusive) |
| CCC(=S)/C=C1\Sc2ccc3ccccc3c2N1CCCS(=O)(=O)O | Cytochrome P450 2C9 (Homo sapiens, UniProt P11712) | 20 µM (inconclusive) |
| CCn1ccc(C(=O)Oc2ccc(Cl)cc2)n1 | Cytochrome P450 2C9 (Homo sapiens, UniProt P11712) | 8.91 µM (inconclusive) |
| Cc1ccc(CCNC(=O)C2CC(c3ccccc3[N+](=O)[O-])=NO2)cc1 (stereo unspecified) | Cytochrome P450 2C9 (Homo sapiens, UniProt P11712) | 39.8 µM (inconclusive) |
| c1cncc(CNc2ncncc2-c2ccc3c(c2)OCO3)c1 | Cytochrome P450 2C9 (Homo sapiens, UniProt P11712) | 0.794 µM (inconclusive) |
| CC1(O)CC(=O)N(c2ccccc2)O1 (stereo unspecified) | Cytochrome P450 2C9 (Homo sapiens, UniProt P11712) | 10 µM (inconclusive) |

----------
- Subject Of Test: Protein RecA (Mycobacterium tuberculosis)
- Sequence (P9WHJ3 whole entry): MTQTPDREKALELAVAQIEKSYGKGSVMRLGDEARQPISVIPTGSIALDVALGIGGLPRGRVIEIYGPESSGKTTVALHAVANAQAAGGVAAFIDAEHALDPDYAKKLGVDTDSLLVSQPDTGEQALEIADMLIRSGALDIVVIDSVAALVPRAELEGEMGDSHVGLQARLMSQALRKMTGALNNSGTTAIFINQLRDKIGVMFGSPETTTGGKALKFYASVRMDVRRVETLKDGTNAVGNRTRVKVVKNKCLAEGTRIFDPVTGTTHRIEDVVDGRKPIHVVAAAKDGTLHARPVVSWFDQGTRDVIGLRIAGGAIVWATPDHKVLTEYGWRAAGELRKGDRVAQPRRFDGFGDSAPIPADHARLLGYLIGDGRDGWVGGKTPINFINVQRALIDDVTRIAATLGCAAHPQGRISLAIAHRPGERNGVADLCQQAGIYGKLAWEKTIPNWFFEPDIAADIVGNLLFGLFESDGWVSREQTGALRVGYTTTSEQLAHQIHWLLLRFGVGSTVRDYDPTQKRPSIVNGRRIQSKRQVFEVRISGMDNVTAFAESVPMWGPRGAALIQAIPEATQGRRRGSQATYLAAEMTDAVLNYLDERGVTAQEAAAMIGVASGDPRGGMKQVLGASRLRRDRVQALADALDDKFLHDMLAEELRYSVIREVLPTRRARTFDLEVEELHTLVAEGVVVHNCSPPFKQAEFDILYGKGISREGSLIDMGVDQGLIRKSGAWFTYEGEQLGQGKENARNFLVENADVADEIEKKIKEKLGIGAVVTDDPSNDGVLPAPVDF
- Assay Remarks: Fluorescence Cell-Free Homogeneous Dose Retest to Identify Inhibitors of RecA-Intein Splicing Activity. [Related pubchem assays (depositor defined):AID2097, AID2223, AID489010, AID492950]
- Assay type: functional
The source made the active and inactive calls.
Classes used: y (active), n (inactive)

| Compound | Classification |
| --- | --- |
| N#CC1=C(N)N(c2ccccc2)C(c2ccccc2)C1(C#N)C#N (stereo not given) | y |
| COc1ccc(CC(=O)O/N=C(\N)Cc2cccc3ccccc23)cc1OC | y |
| CN1CCN(c2ccc([N+](=O)[O-])c3no[n+]([O-])c23)CC1 | n |
| CSc1nnc(NC(=O)C23CC4CC(CC(C4)C2)C3)s1 | n |
| CCC(C)Nc1nc(Cl)nc(N(C#N)CN2C(=O)c3ccccc3S2(=O)=O)n1 (stereo not given) | y |
| O=C(Oc1ccc(N2C(=O)C3C4CCC(C4)C3C2=O)cc1)c1ccco1 (stereo not given) | y |
| COC(=O)c1ccc(C(=O)OC)c(-n2c(=O)c3ccccc3c3ccccc3c2=O)c1 | y |
| Cc1cc(-c2ccccc2)nc2cc(C(=O)N(Cc3ccccc3)Cc3ccccc3)nn12 | n |
| CCCc1n[nH]c2c1C(c1ccc(OC)c(CSC3=NCCS3)c1)C(C#N)=C(N)O2 (stereo not given) | y |
| Oc1ccc(/C=N/c2ccc3ncccc3c2)c(O)c1 | y |

----------
- Subject Of Test: Sentrin-specific protease 8 (Homo sapiens, UniProt Q96LD8)
- Sequence (Q96LD8 whole entry): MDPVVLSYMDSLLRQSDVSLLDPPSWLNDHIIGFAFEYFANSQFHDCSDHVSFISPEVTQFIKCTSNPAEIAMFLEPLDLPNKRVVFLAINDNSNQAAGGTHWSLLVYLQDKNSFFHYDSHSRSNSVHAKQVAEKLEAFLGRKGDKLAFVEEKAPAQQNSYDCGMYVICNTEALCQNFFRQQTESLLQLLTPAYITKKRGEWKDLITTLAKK
- Type: functional
Active and inactive are the calls of the source.
Classes used: 1 for active, 0 for inactive

| Compound | Subject Of Test | Classification |
| --- | --- | --- |
| COc1ccc(-c2ccc(C(c3c(C)n[nH]c3O)c3c(C)n[nH]c3O)o2)c([N+](=O)[O-])c1 | Sentrin-specific protease 8 (Homo sapiens, UniProt Q96LD8) | 1 |
| O=C(Nc1ccccc1N1CCCC1)c1ccc([N+](=O)[O-])o1 | Sentrin-specific protease 8 (Homo sapiens, UniProt Q96LD8) | 0 |
| Cc1ccc(C)c(N/C([S-])=C(/C(=O)c2ccc(Cl)s2)[n+]2ccccc2)c1 | Sentrin-specific protease 8 (Homo sapiens, UniProt Q96LD8) | 1 |
| COC(=O)CCCC1=CC2=CC(=O)C(C)(OC(=O)c3cccs3)C(=O)C2=CN1CCCCO (stereo not given) | Sentrin-specific protease 8 (Homo sapiens, UniProt Q96LD8) | 1 |
| Cc1[nH][nH]c(=O)c1C(c1ccc(-c2ccc(Cl)c(Cl)c2)o1)c1c(C)[nH][nH]c1=O | Sentrin-specific protease 8 (Homo sapiens, UniProt Q96LD8) | 1 |

----------
- Assay Remarks: Luminescence Cell-Based Dose Response HTS to Identify Activators of Luciferase Translation or Activity in H4 […] Cells. [Related pubchem assays: 1829 (Project Summary), 1814 (Primary HTS)]
- Type: functional
The source made the active and inactive calls.
EC50 values for the molecules below.

| Line Notation | EC50 |
| --- | --- |
| CCc1ccc(-c2cc(C(=O)NCc3ccccn3)c3ccccc3n2)cc1 | 21.4 µM (active) |
| CCCn1c(C)cc(C(=O)CSc2nc3ccccc3c(=O)n2Cc2ccco2)c1C | 0.112 µM (active) |
| CN(CC(=O)N1CCCCCC1)S(=O)(=O)c1ccccc1 | 20.8 µM (active) |
| CCN1C(=O)/C(=C/c2nc3ccccc3c(=O)n2-c2ccc(C)cc2)c2ccccc21 | > 120 µM (not active) |
| O=c1cc(-c2cccs2)oc2ccc(Cl)cc12 | 5.5 µM (active) |
